Answer each item with its documented TRE (%) (ratio of KDn to KDref).
# measurementTarget: T1, protein A (UniProt P38507 37-477)
# T1 construct: Immobilized unconjugated on a CM5 chip in SPR; used as HRP conjugate in the ELISA; also called protein A/HRP conjugate; horseradish peroxidase-protein A conjugate
# assayProtocol: SPR (Biacore 3000), protein A immobilized; KD of native VH over KD of heat-denatured/cooled VH, unfolded at 0.5 µM
One number for each entry, in %.

Worked examples, 3 binders total:
huVHAm309 (other, Human VH single-domain antibody, soluble, amber codon replaced by Glu; In the phage ELISA rows the same VH stood on phage (pIII fusion); not shown: C-terminal c-Myc-His6 tag from vector pSJF2H) VH: QVQLVESGGGLIKPGGSLRLSCAASGVNFSNEGMAWVRQAPGKGLEWVSAISSSGGSTYYADSVKGRFTISRDNSKNTVYLQMNSLRAEDTAVYYCVTAQRACANSPCPGSITSWGQETMVTVSS; 94
huVHAm416 (other, Human VH single-domain antibody, soluble, amber codon replaced by Glu; In the phage ELISA rows the same VH stood on phage (pIII fusion); not shown: C-terminal c-Myc-His6 tag from vector pSJF2H) VH: QVQLVESGGGLIKPGGSLRLSCAASGVSFTDDCMAWVRQAPGKGLEWVSAISSSGGSTYYADSVKGRFTISRDNSKNTVYLQMNSLRAEDTAVYYCVADHTQCRQPECESQLCSWGQGTMVTVSS; 100
huVHAm428 (other, Human VH single-domain antibody, soluble, amber codon replaced by Glu; In the phage ELISA rows the same VH stood on phage (pIII fusion); not shown: C-terminal c-Myc-His6 tag from vector pSJF2H) VH: QVQLVESGGGLIKPGGSLRLSCAASGFSLSDDCMGWVRQAPGKGLEWVSAISSSGGSTYYADSVKGRFTISRDNSKNTVYLQMNSLRAEDTAVYYCVTGNQACKHEPWPDEALLLGPRDNVTVSS; 89

Could you now look at the following binder, please?
Fill in: TRE (%) (ratio of KDn to KDref) of huVHAm304 (other, Human VH single-domain antibody, soluble, amber codons replaced by Glu; In the phage ELISA rows the same VH stood on phage (pIII fusion); not shown: C-terminal c-Myc-His6 tag from vector pSJF2H) VH: VQLVESGGGLIEPGGSLRLSCAASGFSFSDEGMAWVRQAPGKGLEWVSAISSSGGSTYYADSVKGRFTISRDNSKNTVYLQMNSLRAEDTAVYYCVRLPKQCTSPDCETEVSSWGQRTMVTVSS is ___
99
